- Test system: SK-MEL-5 melanoma
- Test description: NCI tumour cell line growth inhibition, 48 h
Hi, to clarify the labels: criterion met covers TGI from 20 µM upward, criterion not met covers anything below 20 µM.

>>> category_label("Cc1ccc(C(C2C(=O)N(C)C(=O)N(C)C2=O)C(F)(F)C(=O)N(C)C)cc1 (stereo not given)")
"criterion met"
>>> category_label("CCOC(=O)/C=C(\\C(=O)OCC)n1ccc(N)nc1=O")
"criterion met"
>>> category_label("COc1cc(CC2c3cc(OC)c(OC)cc3CCN2C)c(Oc2cc3c(cc2OC)-c2c(O)c(OC)cc4c2C(C3)N(C)CC4)cc1OC (stereo not given)")
"criterion met"
>>> category_label("Oc1[nH]c2ccccc2c1N=Nc1nc(-c2ccc(Cl)c(Cl)c2)cs1")
"criterion met"
>>> category_label("O=c1[nH]c(=O)n(Cc2ccccc2CO)cc1Sc1ccccc1")
"criterion met"
>>> category_label("CCOC(=O)/C=C/C(C(=O)/C=C/c1ccc(O)c(OC)c1)=C(O)\\C=C\\c1ccc(O)c(OC)c1")
"criterion not met"
>>> category_label("O=C(N/N=C/c1ccccc1O)C(=O)Nc1ccc(F)cc1")
"criterion met"
>>> category_label("CC(C)NC(=O)OCc1c(COC(=O)NC(C)C)c(-c2ccc(Cl)cc2)n2c1CCC2")
"criterion not met"
>>> category_label("O=[Se](=O)c1ccccc1.O=[Se](=O)c1ccccc1.[Cu]")
"criterion met"
>>> category_label("Nc1c(C(=O)Nc2ccccc2)[n+]([O-])c2ccccc2[n+]1[O-]")
"criterion met"

----------
- Tested on: HS 578T breast
- Test description: NCI tumour cell line growth inhibition, 48 h
Experimental readout: TGI

>>> val("Oc1ccc(SCc2cc(O)c(O)c(O)c2)cc1")
"> 100 µM"
>>> val("[N-]=[N+]=NCc1cccc(Nc2cc(=O)[nH]c(=O)[nH]2)c1")
"> 100 µM"
>>> val("O=C(N/N=C/c1ccc([N+](=O)[O-])cc1)c1ccc2nc(-c3ccc(Cl)cc3)[nH]c2c1")
"24.4 µM"
>>> val("N#CC1=C(N)NC(=O)NC12Nc1ccccc1S2 (stereo not given)")
"> 70.4 µM"
>>> val("O=[N+]([O-])c1ccc(N=Nc2c(O)c(S(=O)(=O)O)cc3cc(S(=O)(=O)O)ccc23)cc1")
"> 100 µM"

----------
- Test system: T-47D breast
- Test description: NCI tumour cell line growth inhibition, 48 h; in the data active = GI50 below about 0.43 µM; inactive = the rest
Labels: 1 (yes) (active), 0 (no) (inactive)

>>> category_label("C#Cc1c(C(N)=O)ncn1C1OC(COP(=O)(OCc2ccc([N+](=O)[O-])o2)N(C)CCCCCl)C(O)C1O (centres undefined)")
"0 (no)"
>>> category_label("Cc1cc(C)c(O)c(CN(C)Cc2cc(Cl)cc(Cl)c2O)c1")
"0 (no)"
>>> category_label("CO[C@@H]1/C=C(C)/C=C/[C@@H](C)/C=C(\\C)C(=O)OC(/C(C)=C/C=C(\\C)CNC(=O)[C@H](CO)NC=O)[C@@H](C)/C=C/C=C/[C@H](OC)CC/C=C(C)/C=C/C1 (some centres undefined)")
"1 (yes)"
>>> category_label("O=C(N/N=C/c1ccc([N+](=O)[O-])cc1)c1ccc2nc(-c3ccc(Cl)cc3)[nH]c2c1")
"0 (no)"

----------
- System: U251 CNS
Outcomes: 1 for active, -1 for inactive

>>> category_label("CCN1c2ccccc2C(Cl)(c2ccc(N(C)C)cc2)c2ccccc21")
-1
>>> category_label("O=C(O)c1ccc(N/C=C2\\C(=O)c3ccccc3OC2O)cc1O (stereo not given)")
-1
>>> category_label("C=CC1CC12C(=O)C1OC2(C)C2C(=O)c3c(O)ccc(O)c3C(=O)C12 (stereo not given)")
-1
>>> category_label("N#CC1=C(N)NC(=O)NC12Nc1ccccc1S2 (stereo not given)")
-1
>>> category_label("N#C[S-].[Nd+3].c1ccc(-c2ccccn2)nc1.c1ccc(-c2ccccn2)nc1.c1ccc(-c2ccccn2)nc1")
-1
>>> category_label("CCN(CCCl)CCCNc1c2ccccc2nc2ccc(OC)cc12")
-1
>>> category_label("C#CC(F)(F)[C@]1(O)CC[C@H]2[C@@H]3CCC4=CC(=O)CCC4=C3[C@@H](c3ccc(C(C)=O)cc3)C[C@@]21C")
-1
>>> category_label("N#CCc1ncc(-c2ccc(C(F)(F)F)cc2)c(NC2CCCCCC2)n1")
-1
>>> category_label("C=CC(=O)N[C@H]1CCOC[C@H]1Nc1ncc2cc(-c3c(Cl)c(OC)cc(OC)c3Cl)ccc2n1")
-1
>>> category_label("COc1cccc2c1C(=O)c1c(O)c3c(c(O)c1C2=O)C[C@@](O)(C(=O)CO)C[C@@H]3OC1C[C@H](N)[C@H](O)[C@H](C)O1 (stereo not given in full)")
1
>>> category_label("NS(=O)(=O)c1cccc(N=Cc2c(O)[nH]c3ccccc23)c1")
-1
>>> category_label("COc1cc2c[n+](C)c3c4ccccc4ccc3c2cc1OC (tested in a mixture with another compound)")
-1
>>> category_label("C=CCC(N[C@H](CO)c1ccccc1)c1cn(C(=O)OCC)c2ccccc12 (stereo not given in full)")
-1
>>> category_label("COc1cc(/C=C2\\CN(C)C/C(=C\\c3cc(CN4CCCCC4)c(O)c(OC)c3)C2=O)cc(CN2CCCCC2)c1O")
-1
>>> category_label("COc1ccc2nc3cc(Cl)ccc3c(NCCCNCCC(C)O)c2c1 (stereo not given)")
-1

----------
- Tested on: SK-MEL-2 melanoma
- Test description: NCI tumour cell line growth inhibition, 48 h
Experimental readout: TGI

>>> val("CCOC(=O)/C=C(/C(=O)OCC)n1cc(C)c(=O)n(Cc2cn(COCCOC(C)=O)nn2)c1=O")
"> 100 µM"
>>> val("Fc1ccc(N=NN2CCCC2)cc1")
"> 100 µM"
>>> val("O=C1COc2ccc([N+](=O)[O-])cc2C(=O)C1")
"> 10 µM"
>>> val("Cc1ccc2c(O)c(O)cc(NC(C)CCCN)c2n1 (stereo unspecified)")
"> 91.9 µM"
>>> val("C=C(CC[C@@H](C(=O)O)[C@H]1[C@H](O)C[C@@]2(C)C3=CC[C@@H](C(=C)C)[C@](C)(CCC(=O)O)C3=CC[C@]12C)C(C)C")
"34.3 µM"
>>> val("CCc1ccc2[nH]c(O)c(-c3[nH]c4ccccc4c3N=O)c2c1")
"15.3 µM"
>>> val("NC(=O)c1ccc2c(c1)S(=O)(=O)c1ccccc1C2=O")
"> 100 µM"
>>> val("CSc1ccc2c3c(n(C[C@H](O)CO)c(=O)c2c1)-c1ccccc1C3=O")
"60.8 µM"
>>> val("Cn1cc(-c2cnc3ccc4ccc(CS(=O)(=O)NCc5ccccn5)cc4c(=O)c3c2)cn1")
"53.4 µM"
>>> val("c1ccc(-n2nnnc2-c2cccc3ccccc23)cc1")
"> 63.1 µM"
>>> val("CN(C)CCSC(=Nc1ccccc1)N1CCCCC1")
"31.3 µM"
>>> val("COc1ccc(Cl)cc1NC(=O)C(Br)C(Br)C(=O)O (stereo unspecified)")
"26.2 µM"
>>> val("COc1ccc(-c2ccc(-c3ccc(-c4ccc(C(=N)N)cc4)s3)s2)cc1OC")
"43.5 µM"
>>> val("Oc1[nH]c2ccccc2c1N=Nc1nc(-c2ccc(Cl)c(Cl)c2)cs1")
"> 100 µM"
>>> val("Cc1nc2ccc(S(=O)(=O)O)cc2c(=O)n1-c1ccc(C(=O)NN2C(=O)C(Cl)C2c2ccccc2O)cc1 (stereo unspecified)")
"> 100 µM"
>>> val("c1cn2cc(-c3ccc4cn[nH]c4c3)nc(Nc3ccc(N4CCOCC4)cc3)c2n1")
"> 100 µM"
>>> val("CN1CC(C(=O)C2C(=O)c3ccccc3C2=O)C(=O)C(=O)C(C(=O)C2C(=O)c3ccccc3C2=O)C1 (stereo unspecified)")
"> 100 µM"
>>> val("CC(C)c1ccc(/C=C2\\CSCC3=C2NC(=S)NC3c2ccc(C(C)C)cc2)cc1 (stereo unspecified)")
"> 100 µM"
>>> val("CC(C)(C)C1(COC(=O)c2ccc(N)cc2)COC1")
"> 100 µM"
>>> val("C(=C\\c1ccccc1)/C=N/c1nc2cc3sc(/N=C/C=C/c4ccccc4)nc3cc2s1")
"> 100 µM"
>>> val("C=C1C(=O)O[C@H]2[C@H]1CC/C(COC(=O)NCCc1c[nH]c3ccc(OC)cc13)=C\\CC[C@@]1(C)O[C@@H]21")
"4.18 µM"

----------
- Tested on: HS 578T breast
- Test description: NCI tumour cell line growth inhibition, 48 h
Below, each entry is listed alongside its reported TGI.
Experimental readout: TGI

>>> val("COc1ccc(C(=O)c2cc3c(OC)c(OC)c(OC)cc3[nH]2)cc1")
"> 100 µM"
>>> val("CCCNC(C#N)c1ccc(C(C#N)NCCC)cc1 (stereo not given)")
"> 100 µM"
>>> val("CC(C)(C)C1(COC(=O)c2ccc(N)cc2)COC1")
"> 100 µM"
>>> val("C/C(=N\\N=C(/[Se])N1CC2CCC(CC2)C1)c1ccccn1")
"7.77 µM"
>>> val("O=C1/C(=C/c2ccccc2[N+](=O)[O-])N=C(c2ccccc2)N1C1Nc2cc3c(cc2S1)NC(N1C(=O)/C(=C/c2ccccc2[N+](=O)[O-])N=C1c1ccccc1)S3 (stereo not given)")
"> 100 µM"
>>> val("CC(=O)OC1CC2(O)C3CCC4CC(O)CCC4(C)C3CCC2(C)C1C1=CC(=O)OC1 (stereo not given)")
"> 100 µM"
>>> val("COC(OC)C1OC(CO)C(n2ccc(N)nc2=O)C1O (stereo not given)")
"> 100 µM"
>>> val("O=c1[nH]cnc2[nH]ncc12")
"> 5000 µM"
>>> val("CCCCCCCCCCCCCCCCCCNc1ccn(C2OC(COP(=O)(O)OCC3OC(n4cc(C)c(=O)[nH]c4=O)CC3N=[N+]=[N-])C(O)C2O)c(=O)n1 (stereo not given)")
"49.8 µM"
>>> val("COC(=O)[C@]12CC[C@@H](C)[C@H](C)[C@@H]1C1=CC[C@@H]3[C@@]4(C)C=C(O)C(=O)[C@@]5(C)COC(=C54)C[C@@]3(C)[C@]1(C)CC2")
"49.9 µM"
>>> val("Cc1cc(C)c(O)c(CN(C)Cc2cc(Cl)cc(Cl)c2O)c1")
"32.8 µM"
>>> val("COc1cc(-c2nc3sc4c(c3c(=O)[nH]2)CCCCCC4)cc(OC)c1OC")
"9.76 µM"
>>> val("C=CC(=O)N[C@H]1CCOC[C@H]1Nc1ncc2cc(-c3c(Cl)c(OC)cc(OC)c3Cl)ccc2n1")
"> 100 µM"
>>> val("O=c1cc(-c2ccccc2)[nH]n1-c1nc2ccccc2[nH]1")
"> 100 µM"
>>> val("CC(=O)OC(OC(C)=O)n1cc(C=O)c2ccccc21")
"> 100 µM"
>>> val("Cc1sc(/N=C/c2c[nH]c3ccccc23)c(C#N)c1C")
"> 100 µM"
>>> val("O=S1(=O)c2ccccc2C(=NO)c2ccccc21")
"> 100 µM"
>>> val("CN(NC(=O)CCCl)C1=NCCCCN1")
"> 100 µM"
>>> val("O=c1cc(N2CCCC2)[nH]c(=O)n1-c1cccc(C(F)(F)F)c1")
"> 100 µM"
>>> val("C=C1C(=O)O[C@H]2[C@H]1CC/C(COC(=O)NCCc1c[nH]c3ccc(OC)cc13)=C\\CC[C@@]1(C)O[C@@H]21")
"36.9 µM"
